The entries below come with measured IC50 values attached.
target: KRas G12C (Homo sapiens, UniProt P01116, G12C); test: Cellular inhibition of KRas G12C measured by Phospho-ERK in NCI-H358 cells; format: cell-based; conditions: pERK(Thr202/Tyr204) normalized with GAPDH, NCI-H358 cells, 3 hours; read-out: IC50
Sequence (P01116 1-188 isoform P01116-2 G12C): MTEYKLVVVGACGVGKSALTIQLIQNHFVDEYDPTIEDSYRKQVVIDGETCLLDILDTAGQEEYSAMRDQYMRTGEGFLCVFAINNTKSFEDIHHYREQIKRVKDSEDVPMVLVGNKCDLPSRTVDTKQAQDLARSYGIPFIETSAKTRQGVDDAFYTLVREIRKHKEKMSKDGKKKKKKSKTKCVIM

Examples from the recorded data:
C=CC(=O)N1CCN(c2nc(O[C@H](C)CN(C)C)nc3c2CCN(c2cc(O)cc4ccccc24)C3)CC1CC#N (stereo partly shown) = 0.1 to 1000 nM
C=CC(=O)N1CCN(c2nc(OC[C@@H]3CCCN3C)nc3c2CCN(c2c(C)c(C)cc4[nH]c(=O)[nH]c24)C3)CC1 = > 1000 nM
C=CC(=O)N1CCN(c2nc(OC[C@@H]3C[C@@H](O)CN3C)nc3c2CCN(c2cccc4ccccc24)C3)C[C@@H]1CC#N = 0.1 to 1000 nM

stdin: Identify IC50 associated with the compound C=C(F)C(=O)N1CCN(c2nc(OC[C@@H]3CCCN3C)nc3c2CCN(c2c(C(F)(F)F)c(C)cc4[nH]ncc24)C3)C[C@@H]1CC#N [Example 527]
stdout: 0.1 to 1000 nM

stdin: Identify IC50 associated with the compound C=CC(=O)N1CCN(c2nc(OC[C@@H]3CCCN3C)nc3c2CCN(c2cccc4ccccc24)C3)CC1CC#N (stereo partly shown)
stdout: 0.1 to 1000 nM

stdin: Identify IC50 associated with the compound C=CC(=O)N1CCN(c2nc(OC[C@H]3CCCCN3C)nc3c2CCN(c2cc(O)cc4ccccc24)C3)CC1
stdout: > 1000 nM

* * *

biological target: KRas G12C (Homo sapiens, UniProt P01116, G12C); assay: Cellular inhibition of KRas G12C measured by Phospho-ERK in NCI-H358 cells; type: cell-based; details: pERK(Thr202/Tyr204) normalized with GAPDH, NCI-H358 cells, 3 hours; read-out: IC50
pIC50: −log10 of the molar value. Counter-ions that a name gives are not always drawn.
recorded endpoint: pIC50

Examples from the recorded data:
C=CC(=O)N1CCN(c2nc(OC[C@@H]3CCCN3CCOC)nc3c2CCN(c2cccc4ccccc24)C3)CC1CC#N (some centres unmarked) [Example 266] = 6.00 to 10.00
C=CC(=O)N1CCN(c2nc(OC[C@@]3(C)CCCN3C)nc3c2CCN(c2cccc(F)c2C(F)(F)F)C3)CC1CC#N (some centres unmarked) [Example 418] = 6.00 to 10.00
C=CC(=O)N1CCN(c2nc(OCCCN3C[C@H]4C[C@@H]3CO4)nc3c2CCN(c2ccccc2C(F)(F)F)C3)CC1CC#N (some centres unmarked) [Example 297] = 6.00 to 10.00
C=CC(=O)N1CCN(c2nc(OC[C@H]3CCCN3C)nc3c2CCN(c2ccc(F)c4ccccc24)C3)C[C@@H]1CC#N [Example 318] = 6.00 to 10.00
C=CC(=O)N1CCN(c2nc(OCCN3CCCCC3)nc3c2CCN(c2cccc4ccccc24)C3)CC1CC#N (centres unmarked) [Example 303] = 6.00 to 10.00

stdin: Identify pIC50 associated with the compound C=CC(=O)N1CCN(c2nc(OCCN(C)C)nc3c2CC(C)N(c2cc(O)cc4ccccc24)C3)CC1 (centres unmarked) [Example 48, trifluoroacetate]
stdout: < 6.00

stdin: Identify pIC50 associated with the compound C=CC(=O)N1CCN(c2nc(OC[C@@H]3CCCN3C)nc3c2CCN(c2ccccc2CC(F)(F)F)C3)CC1CC#N (some centres unmarked) [Example 240]
stdout: < 6.00

stdin: Identify pIC50 associated with the compound C=CC(=O)N1CCN(c2nc(OC[C@@H]3CCCN3CC(=O)N(C)C)nc3c2CCN(c2cccc4ccccc24)C3)C[C@@H]1CC#N [Example 402]
stdout: 6.00 to 10.00
